# maps each entry to its concentration at 24 day
# ASSAY PROCEDURE: Withdrawal by means of plasma exchange (comparative): methadone, methadone metabolites and thebaine measured in urine
# MEASUREMENT CONTEXT: human, in vivo
Report as: number unit

COC1=CC=C2[C@H]3Cc4ccc(OC)c5c4[C@@]2(CCN3C)[C@H]1O5 [thebaine] yielded concentration at 24 day of 0 ng/mL

Let us move to another entry and its concentration at 24 day.
Entry CCC(=O)C(CC(C)N(C)C)(c1ccccc1)c1ccccc1 (racemic) [methadone, reference compound] , concentration at 24 day reported as 0 ng/mL

====

Some compounds, each annotated with its measured concentration at 1 day.
# ASSAY PROCEDURE: Withdrawal by means of plasma exchange (comparative): methadone, methadone metabolites and thebaine measured in urine
# MEASUREMENT CONTEXT: human, in vivo
Numbers only here, please. The scale is ng/mL.

The measured concentration at 1 day associated with `COC1=CC=C2[C@H]3Cc4ccc(OC)c5c4[C@@]2(CCN3C)[C@H]1O5` reads 0

Others:
Notebook: CCC(=O)C(CC(C)N(C)C)(c1ccccc1)c1ccccc1 (racemic) [methadone, reference compound] , concentration at 1 day read as 3000

====

// values below are reported concentration at 5 day
# ASSAY PROCEDURE: Withdrawal by means of plasma exchange (comparative): methadone, methadone metabolites and thebaine measured in urine
# MEASUREMENT CONTEXT: human, in vivo
Use ng/mL as the unit, but write only the number.

Query `COC1=CC=C2[C@H]3Cc4ccc(OC)c5c4[C@@]2(CCN3C)[C@H]1O5` yields concentration at 5 day of 0

Let us examine a further case.
In plain terms, CCC(=O)C(CC(C)N(C)C)(c1ccccc1)c1ccccc1 (racemic) [methadone, reference compound] has a documented concentration at 5 day of 400

====

# ASSAY PROCEDURE: Withdrawal by means of plasma exchange (comparative): methadone, methadone metabolites and thebaine measured in urine
# MEASUREMENT CONTEXT: human, in vivo
Each entry below lists one item and its recorded concentration at 17 day value.
Value expressed in ng/mL; do not type the unit.

The recorded concentration at 17 day for COC1=CC=C2[C@H]3Cc4ccc(OC)c5c4[C@@]2(CCN3C)[C@H]1O5 [thebaine] is 0

Entry CCC(=O)C(CC(C)N(C)C)(c1ccccc1)c1ccccc1 (racemic) [methadone, reference compound] ; concentration at 17 day = 0

====

# ASSAY PROCEDURE: Withdrawal by means of plasma exchange (comparative): methadone, methadone metabolites and thebaine measured in urine
# MEASUREMENT CONTEXT: human, in vivo
The following compounds are shown together with reported concentration at 7 day values.
Field: numeric (ng/mL). Do not append units.

compound CCC(=O)C(CC(C)N(C)C)(c1ccccc1)c1ccccc1 (racemic) [methadone, reference compound] , concentration at 7 day observed: 500

New cases:
# compound `COC1=CC=C2[C@H]3Cc4ccc(OC)c5c4[C@@]2(CCN3C)[C@H]1O5` ; its concentration at 7 day = 0

====

Measured concentration at 31 day of individual entries
# ASSAY PROCEDURE: Withdrawal by means of plasma exchange (comparative): methadone, methadone metabolites and thebaine measured in urine
# MEASUREMENT CONTEXT: human, in vivo
Entry rule: numbers only, all in ng/mL.

Form: molecule = CCC(=O)C(CC(C)N(C)C)(c1ccccc1)c1ccccc1 (racemic) [methadone, reference compound] ; concentration at 31 day = 0

Turning to the following molecule.
// concentration at 31 day value for `COC1=CC=C2[C@H]3Cc4ccc(OC)c5c4[C@@]2(CCN3C)[C@H]1O5` : 0

====

The entries below come with measured concentration at 6 day values attached.
# ASSAY PROCEDURE: Withdrawal by means of plasma exchange (comparative): methadone, methadone metabolites and thebaine measured in urine
# MEASUREMENT CONTEXT: human, in vivo
# Excerpt: In the withdrawal therapy of a methadone addict, one of the inventors has practised the method of plasma exchange (PE) for assisting and accelerating the removal of methadone from the body, i.e., blood was taken from the patient, the cellular components were separated and re-infused into the body, and instead of the patient's own plasma portion, the plasma of a donor was supplied. The patient was 2 x connected to the plasmapheresis (1st and 3rd day). […]

concentration at 6 day measured on CCC(=O)C(CC(C)N(C)C)(c1ccccc1)c1ccccc1 (racemic) [methadone, reference compound] = 300 ng/mL

As a next step, examine the compound that follows.
Measured concentration at 6 day, `COC1=CC=C2[C@H]3Cc4ccc(OC)c5c4[C@@]2(CCN3C)[C@H]1O5` : 0 ng/mL
